molecular target: T1, MHC class I molecule B*0702 (biotin (bound to streptavidin-coated plate)); assay: iTopia iScore
T1 construct: also called B7; HLA-B7
metric: iScore
Give your answer as a number; write no unit.

# annotated cases, reported iScore shown
GLRRLELAS [5T4 9-mer peptide 106 GLRRLELAS]: 0
PLPDQCPAL [5T4 9-mer peptide 29 PLPDQCPAL]: 0
NLFLTGNQL [5T4 9-mer peptide 48 NLFLTGNQL]: 0
FLASAVSAQ [5T4 9-mer peptide 24 FLASAVSAQ]: 0
SPTSSASSF [5T4 9-mer peptide 17 SPTSSASSF]: 0.335

Fill blank: measured iScore of the binder EHLPSLRQL [5T4 9-mer peptide 70 EHLPSLRQL] is ____. 0

What do we get for AGDGRLRLA [5T4 9-mer peptide 6 AGDGRLRLA] ? 0

What do we get for APFLASAVS [5T4 9-mer peptide 23 APFLASAVS] ? 0.176

What do we get for SLRQLDLSH [5T4 9-mer peptide 72 SLRQLDLSH] ? 0

What do we get for LNLSGSRLD [5T4 9-mer peptide 62 LNLSGSRLD] ? 0

What do we get for AFSGSNASV [5T4 9-mer peptide 81 AFSGSNASV] ? 0

What do we get for MPGGCSRGP [5T4 9-mer peptide 1 MPGGCSRGP] ? 0
